test: Hygroscopic behavior test by dynamic vapor sorption (DVS); type: physicochemical; settings: relative humidity 40.0 %, 25° C., DVS
Structures can show the parent of a compound that is named as a salt.
quantityMeasured: hygroscopic weight gain (%)
Write the number in % without appending the unit.

{"compound": "Cc1nc(NC(=O)N2CCC(C)(C)C2=O)ccc1Oc1ccnc(-c2cnn(C)c2)c1 [Tartrate crystalline form I]", "quantityMeasured": "hygroscopic weight gain", "obsValue": 2.88}
{"compound": "Cc1nc(NC(=O)N2CCC(C)(C)C2=O)ccc1Oc1ccnc(-c2cnn(C)c2)c1 [Phosphate crystalline form I]", "quantityMeasured": "hygroscopic weight gain", "obsValue": 2.78}
{"compound": "Cc1nc(NC(=O)N2CCC(C)(C)C2=O)ccc1Oc1ccnc(-c2cnn(C)c2)c1 [Hydrochloride crystalline form I]", "quantityMeasured": "hygroscopic weight gain", "obsValue": 0.42}

Please turn your attention to the following entry.
Quick note, hygroscopic weight gain for Cc1nc(NC(=O)N2CCC(C)(C)C2=O)ccc1Oc1ccnc(-c2cnn(C)c2)c1 [Mesylate crystalline form II] landed at 0.24

Just for reference, patent US20250195487A1 is where these values come from.
